Where these numbers come from: a melting point compilation (Tetko et al.)

Listed below: melting point values for each entry.
Conditions: a range is the spread between reports

Some solved entries appear below for comparison.
>  <COMPOUND>
[O-][S+](Cc1ccccc1)Cc1ccccc1

>  <melting point>
133 to 134 °C

$$$$
>  <COMPOUND>
NC(=O)c1ccc(F)cc1

>  <melting point>
156 °C

$$$$
>  <COMPOUND>
NC(=O)c1ccccc1Br

>  <melting point>
160 to 161 °C

$$$$
>  <COMPOUND>
Nc1ccc(C(=O)O)cc1

>  <melting point>
188 to 189 °C

$$$$
>  <COMPOUND>
COc1cc(C=O)cc(OC)c1O

>  <melting point>
112 to 113 °C

$$$$

Reported melting point for O=[N+]([O-])c1cccc(C(F)(F)F)c1 was -5 to -2.4 °C

Item: O=C=Nc1ccc(Cl)c(Cl)c1 | melting point: 42 to 43 °C

melting point reading for ClCCOCCCl : -51.9 to -47 °C

Lab book: melting point of BrCc1ccc2ccccc2c1 noted as 53 to 56 °C

Noted for O=C1CCCc2ccccc21 : its melting point reads 7 to 8 °C

----------
Conditions: a range is the spread between reports
melting point overview

// known answers, use as guide
>  <MOLECULE>
COC(=O)CCC(=O)O

>  <MEASURED ENDPOINT>
melting point

>  <RECORDED MEASUREMENT>
57.5 to 58 °C

$$$$
>  <MOLECULE>
CC(=O)C1C(=O)C=C(C)OC1=O (stereo unspecified)

>  <MEASURED ENDPOINT>
melting point

>  <RECORDED MEASUREMENT>
109 to 111 °C

$$$$
>  <MOLECULE>
O=C(O)c1ccc(-c2ccccc2)cc1

>  <MEASURED ENDPOINT>
melting point

>  <RECORDED MEASUREMENT>
225 to 228 °C

$$$$
>  <MOLECULE>
Oc1ccc(Cl)c(Cl)c1

>  <MEASURED ENDPOINT>
melting point

>  <RECORDED MEASUREMENT>
66 to 68 °C

$$$$
>  <MOLECULE>
Cc1ccc2ccccc2c1

>  <MEASURED ENDPOINT>
melting point

>  <RECORDED MEASUREMENT>
33 to 34.4 °C

$$$$

Notebook: CC(C)COC(=O)C(C)C , melting point read as -81 to -80 °C

Per the record, CCOC(=O)C(C)C has melting point of -88.2 to -88 °C

melting point reading for O=[N+]([O-])c1ccc(Nc2ccccc2)c([N+](=O)[O-])c1 : 159 to 160 °C

melting point for CCCCCCCCCC=O is -6 to -5 °C

Entry Cc1ccc(C)o1 — recorded melting point = -62.8 to -62 °C

// c1ccc(-c2ccncc2)nc1 : melting point value = 61 to 61.5 °C

For reference, reported melting point for O=S(=O)(c1ccccc1)c1ccccc1 stands at 128 °C

Just so you know, measured melting point for CCc1ccccc1N came out at -47 to -44 °C

Sample O=C(CCC(=O)c1ccccc1)c1ccccc1 ; melting point observed: 144 to 146 °C

Lab book: melting point of Nc1ccccc1C=O noted as 38 to 39 °C

Entry C1COCCO1 — recorded melting point = 11.8 to 12 °C
